The measurements presented in this section are drawn from PubChem BioAssay AID1259407.

# Tested on: CCRIS mutagenicity, Ames/micronucleus/aberration tests
# assay.comment: CCRIS mutagenicity studies
# condition.set: Test System: CHINESE HAMSTER V-79; Strain/Indicator: V-79 (HPRT)/6-THIOGUANINE; Metabolic Activation: NONE
The source made the active and inactive calls. How the calls were made is not given here.
Permitted responses: Yes = active, No = inactive

Enquiry: I'd appreciate the recorded outcome for C=C(C)C=O from this test.
Return: Yes

Enquiry: I'd appreciate the recorded outcome for CCn1cc(C(=O)O)c(=O)c2cc(F)c(N3CCN(C)CC3)cc21 from this test.
Return: No

Enquiry: I'd appreciate the recorded outcome for CC(=O)CC1CCC(=O)CCC(=O)OC(CC(C)=O)CCC(O)CCC(=O)O1 (centres undefined) from this test.
Return: No

Enquiry: I'd appreciate the recorded outcome for C=C(C)C(=O)OCCOCCOCCOC(=O)C(=C)C from this test.
Return: Yes

Enquiry: I'd appreciate the recorded outcome for OC[C@H](Cc1cccc(O)c1)[C@H](CO)Cc1cccc(O)c1 from this test.
Return: No

Enquiry: I'd appreciate the recorded outcome for O=C1OC[C@@H](Cc2cccc(O)c2)[C@@H]1Cc1cccc(O)c1 from this test.
Return: No

Enquiry: I'd appreciate the recorded outcome for CCn1cc(C(=O)O)c(=O)c2cc(F)c(N3CCNCC3)cc21 from this test.
Return: No

Enquiry: I'd appreciate the recorded outcome for CC(=O)C[C@@H]1CCCCCC(=O)O[C@H](CC(C)=O)CCC(=O)CCC(=O)O1 from this test.
Return: Yes

Enquiry: I'd appreciate the recorded outcome for CC1COc2c(N3CCN(C)CC3)c(F)cc3c(=O)c(C(=O)O)cn1c23 (centres undefined) from this test.
Return: No

====

# Test system: CCRIS mutagenicity, Ames/micronucleus/aberration tests
# assay.comment: CCRIS mutagenicity studies
# condition.set: Test System: AMES SALMONELLA TYPHIMURIUM; Strain/Indicator: TA98; Metabolic Activation: RAT, LIVER, S-9, AROCLOR 1254; Method: PREINCUBATION
Calls of active or inactive are those of the source. How the calls were made is not given here.
Permitted responses: t for active, f for inactive

Enquiry: I'd appreciate the recorded outcome for O=[N+]([O-])c1cc(Cl)c(Cl)c(Cl)c1Cl from this test.
Return: f

Enquiry: I'd appreciate the recorded outcome for CCC=O from this test.
Return: f

Enquiry: I'd appreciate the recorded outcome for O=[N+]([O-])c1cc2c3c(ccc2c2ccccc12)[C@H](O)[C@@H](O)C=C3 from this test.
Return: f

Enquiry: I'd appreciate the recorded outcome for CCC1CO1 (centres undefined) from this test.
Return: f

Enquiry: I'd appreciate the recorded outcome for CC(O)c1ccccc1 (centres undefined) from this test.
Return: f

Enquiry: I'd appreciate the recorded outcome for Cc1cc(=O)oc2cc(O)ccc12 from this test.
Return: f

Enquiry: I'd appreciate the recorded outcome for NC(CNCCCC[C@H](N)C(=O)O)C(=O)O (some centres undefined) from this test.
Return: f

Enquiry: I'd appreciate the recorded outcome for Cc1cnc2ccc3c(ncn3C)c2n1 from this test.
Return: f

Enquiry: I'd appreciate the recorded outcome for O=CC=O from this test.
Return: t

Enquiry: I'd appreciate the recorded outcome for O=[N+]([O-])N(c1ccccn1)S(=O)(=O)c1ccccc1 from this test.
Return: f

Enquiry: I'd appreciate the recorded outcome for C=CC(=O)OCC from this test.
Return: f

Enquiry: I'd appreciate the recorded outcome for O=C/C=C/C=C/C=O from this test.
Return: f

Enquiry: I'd appreciate the recorded outcome for CNCCCC(=O)O from this test.
Return: f

Enquiry: I'd appreciate the recorded outcome for CCN(CC)S(=O)(=O)c1ccc(N)cc1 from this test.
Return: f

Enquiry: I'd appreciate the recorded outcome for C[Si](C)(C)Cl from this test.
Return: f

Enquiry: I'd appreciate the recorded outcome for Cc1cccc(NO)c1 from this test.
Return: f

Enquiry: I'd appreciate the recorded outcome for COc1cc2c(c3oc(=O)c4c(c13)CCC4=O)[C@@H]1C=CO[C@@H]1O2 from this test.
Return: t

Enquiry: I'd appreciate the recorded outcome for CC(=O)O[C@]1(C(C)=O)CC[C@H]2[C@@H]3C4OC4(Cl)C4=CC(=O)[C@@H]5C[C@@H]5[C@]4(C)[C@H]3CC[C@@]21C (some centres undefined) from this test.
Return: f

Enquiry: I'd appreciate the recorded outcome for Cc1cnc2ccccc2n1 from this test.
Return: f

Enquiry: I'd appreciate the recorded outcome for Cn1c(N)nc2cc(C#N)ccc21 from this test.
Return: t

Enquiry: I'd appreciate the recorded outcome for COP(=O)(OC)SC from this test.
Return: f

Enquiry: I'd appreciate the recorded outcome for O=C(Nc1ccc([N+](=O)[O-])cc1Cl)c1cc(Cl)ccc1O from this test.
Return: t

Enquiry: I'd appreciate the recorded outcome for Oc1ccc(Cl)c(Cl)c1 from this test.
Return: f

Enquiry: I'd appreciate the recorded outcome for Nc1ccc(Nc2ccc([N+](=O)[O-])cc2)cc1 from this test.
Return: t

Enquiry: I'd appreciate the recorded outcome for Cc1ccccc1N from this test.
Return: f

Enquiry: I'd appreciate the recorded outcome for COc1cccc(N)c1 from this test.
Return: f

Enquiry: I'd appreciate the recorded outcome for C=CCOC(=O)CC(C)C from this test.
Return: f

Enquiry: I'd appreciate the recorded outcome for Cc1c(N)nc(C)c2c1[nH]c1ccccc12 from this test.
Return: t

Enquiry: I'd appreciate the recorded outcome for CC=O from this test.
Return: f
